System: NCI/ADR-RES
Test: NCI tumour cell line growth inhibition, 48 h
The source made the active and inactive calls. Rule as the data show it: active = GI50 up to about 1.1 µM and inactive = higher.
propertyLabel: GI50

Here is how some compounds turned out for GI50.
>  <compound>
C=C1[C@H]2O[C@H]2[C@@H](OC(C)=O)[C@@]2(C)[C@@H](OC(C)=O)C[C@@H](OC(=O)CCC)[C@@](C)(O)[C@@H]2[C@@H](OC(C)=O)[C@]2(O)[C@@H](C)C(=O)O[C@H]2[C@H]1Cl

>  <GI50>
> 100 µM (inactive)

$$$$
>  <compound>
C[N+]12CCN(c3ccccc31)c1ccccc12.[O-][Cl+3]([O-])([O-])[O-]

>  <GI50>
> 10 µM (inactive)

$$$$
>  <compound>
COC1(C)OC[C@@]2(C)OC(C)C1(C)C2O[Si](C(C)C)(C(C)C)C(C)C (some centres not stated)

>  <GI50>
22.1 µM (inactive)

$$$$
>  <compound>
Cc1ccc(SCC(CSCCO)OCn2cnc3c2N=C(N)NC32OCCO2)cc1 (configuration not stated)

>  <GI50>
> 100 µM (inactive)

$$$$
>  <compound>
Cc1nn(-c2ccccc2)c2c1C(c1cc3ccccc3nc1Cl)NC(=O)N2 (configuration not stated)

>  <GI50>
28.4 µM (inactive)

$$$$
>  <compound>
C=C1C(=O)O[C@@H]2C[C@@]3(C)CC(=O)C=C(C)[C@@H]3C[C@H]12

>  <GI50>
11.3 µM (inactive)

$$$$

Now consider the entry below.
QUERY: Using the record for `CC(=O)O[C@H]1C(=O)[C@@]2(C)[C@H]([C@H](OC(=O)c3ccncc3)[C@]3(O)C[C@H](OC(=O)[C@H](O)[C@@H](NC(=O)c4ccccc4)c4ccccc4)C(C)=C1C3(C)C)[C@]1(OC(C)=O)CO[C@@H]1C[C@@H]2O` , report its GI50.
RESULT: > 25 µM (inactive)
